B1: library; numbered along this chain (parent)
chain: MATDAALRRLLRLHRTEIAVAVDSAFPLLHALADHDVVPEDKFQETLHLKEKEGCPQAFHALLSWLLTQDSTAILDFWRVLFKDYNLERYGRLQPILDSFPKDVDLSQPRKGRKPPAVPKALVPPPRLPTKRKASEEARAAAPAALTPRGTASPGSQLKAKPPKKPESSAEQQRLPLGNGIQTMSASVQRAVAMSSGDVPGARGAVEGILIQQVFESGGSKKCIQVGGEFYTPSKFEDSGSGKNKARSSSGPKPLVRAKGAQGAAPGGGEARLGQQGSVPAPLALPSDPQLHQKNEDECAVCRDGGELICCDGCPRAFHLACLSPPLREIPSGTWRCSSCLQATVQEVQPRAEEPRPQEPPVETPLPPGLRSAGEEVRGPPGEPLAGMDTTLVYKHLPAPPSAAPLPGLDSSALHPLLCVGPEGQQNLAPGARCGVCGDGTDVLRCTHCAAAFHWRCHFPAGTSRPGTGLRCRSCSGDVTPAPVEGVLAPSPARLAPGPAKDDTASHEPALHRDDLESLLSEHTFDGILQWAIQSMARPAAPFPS

- Variants of: B1
- Assay Remarks: AIRE transcriptional activation functional score (insulin promoter-GFP; nonsense median 0, synonymous median 1) (normalised score); higher = higher AIRE activity (more reporter activation)
- Measurement Parameters: with insulin promoter-GFP reporter in HEK293
Measured Endpoint: AIRE transcriptional activation functional score
Write the value as a bare number.

INPUT: Requested read-out: AIRE transcriptional activation functional score. Entry: `L122A`
OUTPUT: 0.747

INPUT: Requested read-out: AIRE transcriptional activation functional score. Entry: `Q182T`
OUTPUT: 1.69

INPUT: Requested read-out: AIRE transcriptional activation functional score. Entry: `D288I`
OUTPUT: 1.38

INPUT: Requested read-out: AIRE transcriptional activation functional score. Entry: `H292C`
OUTPUT: 0.815

INPUT: Requested read-out: AIRE transcriptional activation functional score. Entry: `C302N`
OUTPUT: 0.531

INPUT: Requested read-out: AIRE transcriptional activation functional score. Entry: `L444P`
OUTPUT: 0.0281

INPUT: Requested read-out: AIRE transcriptional activation functional score. Entry: `K111L`
OUTPUT: 1.65

INPUT: Requested read-out: AIRE transcriptional activation functional score. Entry: `V188C`
OUTPUT: 0.891

INPUT: Requested read-out: AIRE transcriptional activation functional score. Entry: `A541S`
OUTPUT: 0.717

INPUT: Requested read-out: AIRE transcriptional activation functional score. Entry: `A58G`
OUTPUT: -0.107

INPUT: Requested read-out: AIRE transcriptional activation functional score. Entry: `S248A`
OUTPUT: 0.947

INPUT: Requested read-out: AIRE transcriptional activation functional score. Entry: `W531A`
OUTPUT: -0.104

INPUT: Requested read-out: AIRE transcriptional activation functional score. Entry: `V279N`
OUTPUT: 0.603

INPUT: Requested read-out: AIRE transcriptional activation functional score. Entry: `D84M`
OUTPUT: -0.309

INPUT: Requested read-out: AIRE transcriptional activation functional score. Entry: `S491V`
OUTPUT: 0.901

INPUT: Requested read-out: AIRE transcriptional activation functional score. Entry: `C434I`
OUTPUT: 0.0869

INPUT: Requested read-out: AIRE transcriptional activation functional score. Entry: `V393D`
OUTPUT: 0.48

INPUT: Requested read-out: AIRE transcriptional activation functional score. Entry: `H292F`
OUTPUT: 0.915

INPUT: Requested read-out: AIRE transcriptional activation functional score. Entry: `F318M`
OUTPUT: 1.54

INPUT: Requested read-out: AIRE transcriptional activation functional score. Entry: `G227M`
OUTPUT: -1.01

INPUT: Requested read-out: AIRE transcriptional activation functional score. Entry: `H30R`
OUTPUT: 0.24

INPUT: Requested read-out: AIRE transcriptional activation functional score. Entry: `I533S`
OUTPUT: 0.404

Origin of the recorded values: the supplement of paper PMC12667976
